The reported measurements were obtained from ChEMBL document CHEMBL3639274.

- TGT: Microtubule-associated protein tau (Homo sapiens)
- Sequence (P10636 whole entry): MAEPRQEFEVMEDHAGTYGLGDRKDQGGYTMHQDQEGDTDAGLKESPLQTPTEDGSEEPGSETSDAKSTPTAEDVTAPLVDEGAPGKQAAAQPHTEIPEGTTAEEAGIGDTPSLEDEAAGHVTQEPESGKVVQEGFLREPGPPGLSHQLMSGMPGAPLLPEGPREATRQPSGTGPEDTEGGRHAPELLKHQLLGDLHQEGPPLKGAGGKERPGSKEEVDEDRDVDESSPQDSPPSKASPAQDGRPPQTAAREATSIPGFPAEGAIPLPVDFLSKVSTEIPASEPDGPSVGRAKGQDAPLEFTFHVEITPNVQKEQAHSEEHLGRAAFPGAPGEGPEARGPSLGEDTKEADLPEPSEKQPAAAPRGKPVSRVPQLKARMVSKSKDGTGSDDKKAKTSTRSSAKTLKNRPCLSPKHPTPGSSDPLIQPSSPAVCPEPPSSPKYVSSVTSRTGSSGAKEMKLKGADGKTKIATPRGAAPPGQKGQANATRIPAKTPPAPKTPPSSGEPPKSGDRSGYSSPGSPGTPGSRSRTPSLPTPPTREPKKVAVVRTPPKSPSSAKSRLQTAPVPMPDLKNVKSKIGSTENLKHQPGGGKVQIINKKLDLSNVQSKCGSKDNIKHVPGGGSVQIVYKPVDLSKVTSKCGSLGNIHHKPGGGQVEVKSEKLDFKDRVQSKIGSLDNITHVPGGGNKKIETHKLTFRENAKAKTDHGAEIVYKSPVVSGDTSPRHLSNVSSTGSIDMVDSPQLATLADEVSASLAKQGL
- MEASUREMENT_DESCRIPTION: Thio S Fluorometry Assay: The Thio S fluorometry assay as a primary screening method to identify tau protein aggregation inhibitors from our small molecule library. Aggregated tau fibrils were prepared in the presence of equimolar ratios of TauRD and heparin (10 μM each) in 20 mM Na-phosphate buffer, pH7.4. The reaction mixture was incubated at 37° C. with shaking (800-1000 rpm) for 22-24 hr (or for 3 days). In the Thio S inhibition assays, test compounds at 0, 0.1, 1, 10 and 100 μM were added at time 0 into the reaction containing TauRD and heparin. The same reaction mixture (+/− increasing concentrations of compounds) but without TauRD were also set up in parallel to serve as background controls. For all test compounds background fluorescence readings were very low, usually <5% of those of the TauRD-containing wells. For each compound, the IC50 was calculated using Prism version 5 software (GraphPad Software) by nonlinear regression [(Log [inhibitor] vs. normalized response; variable slope)].
IC50 listing for selected compounds.

# COMPOUND, IC50 / µM
rows = [
    ("CC(=O)N1N=C(c2ccc(O)c(O)c2)CC1c1ccc(O)c(O)c1 (configuration not stated)", 78.5),
    ("Oc1ccc(-c2cn(-c3ccc(O)c(O)c3)nn2)cc1O", 34),
    ("Oc1ccc(-c2cc(Br)c(-c3ccc(O)c(O)c3)s2)cc1O", 211),
    ("O=C(/C=C/c1cc(O)c(O)cc1Br)c1ccc(O)c(O)c1", 9.02),
    ("Oc1ccc(-c2nnc(-c3ccc(O)c(O)c3)o2)cc1O", 3940),
    ("Oc1ccc(-c2nsc(-c3ccc(O)c(O)c3)n2)cc1O", 10.2),
    ("Oc1ccc(Cc2cc(O)c(O)cc2O)cc1O", 5.2),
    ("O=C(/C=C/c1ccc(O)c(O)c1)c1ccc(O)c(O)c1", 21.4),
    ("O=[N+]([O-])c1cc(-c2ccc(O)c(O)c2)ccc1-c1ccc(O)c(O)c1", 24.7),
    ("Oc1ccc(-c2cnc(-c3ccc(O)c(O)c3)o2)cc1O", 117),
    ("Oc1ccc(-c2nc3cc(O)c(O)cc3o2)cc1O", 7.34),
    ("O=C(/C=C/c1ccc(O)c(O)c1)c1cc(O)c(O)cc1Br", 21.2),
]
